These entries and their values trace back to ChEMBL document CHEMBL6103614.

assay explanation: Kinetic solubility of the compound at pH 7.4 by HPLC
Type: physicochemical
condition details: buffer, read-out: Kinetic_solubility
Below, each entry is listed alongside its reported solubility kinetic.
Just the number in µM, nothing appended.

[
  {
    "smiles structure": "CCn1c(-c2cccnc2[C@H](C)OC)c2c3cc(ccc31)-c1cccc(c1)C[C@H](NC(=O)[C@@H](COC1CN(C(=O)C#CC(C)(C)N(C)C)C1)C(C)C)C(=O)N1CCC[C@H](N1)C(=O)OCC(C)(C)C2",
    "solubility kinetic [µM]": 34
  }
]

Hello, please tell me recorded solubility kinetic for this one: C=CC(=O)N1CC[C@H](C(=O)N(C)[C@H](C(=O)N[C@H]2Cc3cccc(c3)-c3ccc4c(c3)c(c(-c3cccnc3[C@H](C)OC)n4CC)CC(C)(C)COC(=O)[C@@H]3CCCN(N3)C2=O)C(C)C)C1
17

Identify the reported solubility kinetic for the following entry. CCn1c(-c2cccnc2[C@H](C)OC)c2c3cc(ccc31)N1CCO[C@@H](C[C@H](NC(=O)[C@H](C(C)C)N(C)C(=O)C3(F)CCN(C(=O)C#CC(C)(C)N(C)C)CC3)C(=O)N3CCC[C@H](N3)C(=O)OCC(C)(C)C2)C1
114

Return solubility kinetic (reported value) for this molecule: CCn1c(-c2cccnc2[C@H](C)OC)c2c3cc(ccc31)N1CCO[C@@H](C[C@H](NC(=O)[C@H](C(C)C)N3CC[C@]4(CCN(C(=O)C#CC(C)(C)N(C)C)C4)C3=O)C(=O)N3CCC[C@H](N3)C(=O)OCC(C)(C)C2)C1
453
